# ASSAY_REMARKS: in vitro
# Set-up: Viability of infected HeLa host cells, resazurin conversion, bulk resorufin fluorescence relative to DMSO
# PROTOCOL_CONDITIONS: human, hela cells; bulk resorufin, mean of 2
ENDPOINT_LABEL: viability at 28.5 h, 1 µM (%)

O=C(CCN1CCCCC1)Nc1ccc2c(=O)n3c(nc2c1)/C(=C/c1ccccc1)CC3 | 91.6
CC(=O)NC[C@H]1CN(c2ccc(-c3nnc(C(C)O)s3)c(F)c2)C(=O)O1 (stereo partly shown) | 91.4
Nc1ccc(C(=O)Nc2ccc(-c3nc4ccc(NC(=O)c5ccc(N)cc5)cc4[nH]3)cc2)cc1 | 88.3
CCOc1ccc2nc(NC(=N)N)nc(C)c2c1 [CBK010384C] | 90.4
O=C(c1ccc(-c2ccc(F)cc2)o1)N1C[C@H]2CC[C@](O)(c3ccc(F)cc3)[C@H]2C1 | 91.9
CC(NC(=O)N(Cc1ccccc1C(F)(F)F)CC(C)(C)CN)c1cccc2ccccc12 (stereo not shown) [CBK002422C] | 90.1
O=C(NCCCn1ccnc1)N1CCN(Cc2ccc(Cl)cc2)CC1 | 90.1

====

# ASSAY_REMARKS: in vitro
# PROTOCOL_CONDITIONS: human, hela cells, % viability
ENDPOINT_LABEL: viability at 28.5 h, 10 µM (%)

Cn1c(=O)c2c(ncn2CC(=O)Nc2ccc3ccccc3c2)n(C)c1=O | 81.2
Cn1c(CNC(=O)c2ncoc2-c2cccs2)nc2ccccc21 | 78.6
Cc1ccc(C2SCC(C(=O)O)N2C(=O)c2cccc(Cl)c2)cc1 (stereo not drawn) | 93.3
S=C(NCCC(c1ccccc1)c1ccccc1)Nc1ccc(Cl)c(Cl)c1 | 85.1
C[C@H](Nc1nccnc1-c1ccsc1)c1ccccc1 | 94.9
CCC1(CC)OC(N[C@@H](C)c2ccccc2C(F)(F)F)=NC1=O | 91.2
O=c1[nH]c2ccccc2n1CCOc1ccccc1 | 98.5
Cc1ccccc1N1CCC(CNC(=O)CCn2nc(C)c(C)c2C)C1 (stereo not drawn) | 87.7
Fc1c(F)c(Oc2ccccc2Cl)c(F)c(F)c1/C=C/CN1CCOCC1 [CBK269318C] | 96.7
COc1ccc(-c2ccc(CCC(=O)O)n2-c2ccc(N(C)C)cc2)cc1 | 110
CCCCCCN(CCN1CCOCC1)C(=O)Nc1cc(C)on1 | 84.7
O=C(CCN1C(=O)COc2ccccc21)Nc1ccnn1Cc1ccccc1Br | 99.8
FC(F)(F)c1ccnc(Sc2nc[nH]n2)n1 | 93.1
COc1ccc(N2CC(C(=O)N(C)CC(F)(F)F)CC2=O)cc1 (stereo not drawn) | 98.2
Cc1cc(C)cc(NC(=O)N2CCN(c3nccnc3NS(C)(=O)=O)CC2)c1 | 105

====

# ASSAY_REMARKS: in vitro
# PROTOCOL_CONDITIONS: human, hela cells, % viability
# Lookup of reported viability at 28.5 h, 10 µM keyed by entry
ENDPOINT_LABEL: viability at 28.5 h, 10 µM (%)

COc1cc(-c2cncc(N3CCCC3CO)n2)cc(OC)c1OC (stereo not shown) | 104
COc1cccc(NC(=O)CC(CN2CCN(c3ccccc3)CC2)C(=O)O)c1 (stereo not shown) | 90.7
Cn1c(=O)n(C)c2cc(CNCc3ccc(C(=O)O)cc3)ccc21 | 95.8
O=C(O)CCNC(=O)c1ccc(C#CC2(O)CCCCC2)cc1 | 93.2
Cc1ccc(S(=O)(=O)NCCOc2nc(N(C)C)nc(N3CCOCC3)n2)cc1 | 97
CCCC(=O)N1CCCCC1c1nn(C)cc1-c1cc(C)no1 (stereo not shown) | 106
Cc1c(C(=O)N2CCC[C@@H]2CO)nnn1Cc1ccc(F)cc1F | 89.2
CC(C)C(=O)N1CCN(c2ccccc2NC(=O)c2ccc(N3CCCCC3)c([N+](=O)[O-])c2)CC1 | 100
CC(=O)N1CCN2C(=O)c3cc(-c4ccc5c(c4)OCO5)ccc3NC(=O)[C@H]2C1 | 90.1
Cc1nc2ccc(C(=O)N(C)CCN(C)C)cn2c1N(C)Cc1cccs1 | 102
O=C(Nc1cccc(-c2noc(CCc3ccccc3)n2)c1)c1cccs1 | 87.4
Cc1c(C(=O)N2CCCCC2)sc2nc(C(F)(F)F)nn12 | 105
COc1ccccc1CC(=O)NCc1nc(-c2cccc(C)c2)no1 | 96.7
CC(C)C(=O)N1C[C@H]2N(C)C(=O)c3ccccc3C(=O)[C@@]2(C)C1 | 97.8
O=c1c(N2CCNCC2)nccn1CCc1cccs1 [CBK050382T] | 89.3
Cc1nn2c(=O)c(CCC(=O)O)c(C)[nH]c2c1-c1ccccc1 | 92.4
Nc1ncc(-c2cccnc2)nc1NCc1ccccc1 | 102
CNCCc1nc(-c2ccc(F)cc2)c2cnccn12 | 90.7
Fc1ccccc1CN(CCCn1ccnc1)CC1CCOC1 (stereo not shown) | 104
O=C(Cn1c(C2CCOCC2)cc2cccnc21)NC1CCCC1 | 86.3
CC(C)(Oc1ccc(Cl)cc1)C(=O)Nc1ccc(CN2CCOCC2)cc1 | 89.1
CCN(CC)Cc1nccn1-c1ccc([N+](=O)[O-])cc1C(=O)c1ccccc1Cl [CBK011562F] | 105
O=C(NC(=S)Nn1cnnc1)c1ccccc1 | 125
CCOC(=O)c1sc2nc(C(C)N3CCOCC3)[nH]c(=O)c2c1C (stereo not shown) | 82.5
CC(C)(C)c1cc(NC(=O)C(C)(C)S(=O)(=O)c2ccc(C(F)(F)F)cn2)no1 | 113
COC(=O)CN1C(CN2CCOCC2)=Nc2ccc(Br)cc2C1c1ccccc1 (stereo not shown) | 89.8
COc1ccc(CN2CCCC(c3nc(C)n4ccccc34)C2)cc1 (stereo not shown) | 94.6
CCN(CC(C)C#N)C(=O)c1ccc2ccccc2n1 (stereo not shown) | 96.6
